These measurements were taken from ChEMBL document CHEMBL1201862.

Kindly state GI50 for each of the entries shown.
system: TK-10; experiment: NCI tumour cell line growth inhibition, 48 h
Structures can show the parent of a compound that is named as a salt. Calls of active or inactive are those of the source. Cut-off read from the data, not from the text of the source: active = GI50 up to about 1.1 µM and inactive = higher.

## Task Return reported GI50; argument: `COc1nc2nccc-2c2occn12`
## Result > 100 µM (inactive)

## Task // next record `c1ccc2nc(-c3ccc4c(c3)OCO4)ccc2c1`
## Result 64 µM (inactive)

## Task // next record `Cc1ccc2nc(NC(=O)C(=O)CC(=O)c3cccc4ccccc34)sc2c1`
## Result 24.1 µM (inactive)

## Task // next record CC1OC(OC2CCCc3c(O)c4c(c(O)c32)C(=O)c2ccccc2C4=O)CC(N)C1O (centres undefined)
## Result 1.6 µM (inactive)

## Task // next record `Cc1c(C#N)c2nnn(-c3ccc([N+](=O)[O-])cc3)c(=O)n2c1-c1ccccc1`
## Result 20 µM (inactive)

## Task // next record `CC(C)C(/C=C/c1ccc(Cl)cc1)=N\NC(=O)N/N=C(/C=C/c1ccc(Cl)cc1)C(C)C`
## Result 25.3 µM (inactive)

## Task // next record `CCOc1ccc(/C=C/C(=O)c2sc(NNC(C)=O)nc2C)cc1`
## Result > 100 µM (inactive)

## Task // next record CC(C)CC1[C@@H](OCc2ccccc2)COS(=O)N1Cc1ccccc1 (some centres undefined)
## Result 40 µM (inactive)

## Task // next record `COc1cc2c3c(c1OC)C(=O)C=C3N(S(=O)(=O)c1ccc(C)cc1)CC2`
## Result > 100 µM (inactive)

## Task // next record Nc1ncnc2c1ncn2C1OC(CSC(F)F)C(O)C1O (centres undefined)
## Result > 100 µM (inactive)

## Task // next record Cn1c2c(c3ccccc31)CCN1C(=O)C3SC21C1C(=O)N(c2ccccc2)C(=O)C31 (centres undefined)
## Result 23.8 µM (inactive)

## Task // next record `C[C@@H]([C@H]1CC[C@@]2(C)[C@@H]3CC[C@@H]4C(=CC3=CC[C@]12C)CC[C@H](N(C)C)C4(C)C)N(C)C`
## Result > 100 µM (inactive)

## Task // next record COC(=O)C(Cc1cn(C(C)=O)c2ccccc12)P(=O)(OC)OC (centres undefined)
## Result > 100 µM (inactive)

## Task // next record CC(C)CCCC(C)[C@H]1CC[C@H]2N/C(=N/c3ccccc3)CCC[C@]12C (some centres undefined)
## Result 2.62 µM (inactive)

## Task // next record COC1CC(COCc2ccccc2)CC(OC)O1 (centres undefined)
## Result > 100 µM (inactive)

## Task // next record `Cc1ccc([N+](=O)[O-])c2c(NCCNC(=O)Cn3ccnc3[N+](=O)[O-])ccnc12`
## Result 88.3 µM (inactive)

## Task // next record `COC(=O)c1cnn2c1ccc1ccccc12`
## Result > 100 µM (inactive)

## Task // next record C#CCSc1nc(N)c2ncn(C3OC(COP(=O)(O)O)C(O)C3O)c2n1 (centres undefined)
## Result > 239 µM (inactive)

## Task // next record O=C1CC2(C[C@@H]3CCCCCCCCC[C@@H](C3)C2)N1 (some centres undefined)
## Result 17.1 µM (inactive)

## Task // next record `N/C(=C\c1ccc(OCc2ccccc2)c(OCc2ccccc2)c1[N+](=O)[O-])C(=O)O`
## Result > 100 µM (inactive)

## Task // next record `Cc1cc(C)nc(NS(=O)(=O)c2ccc(Nc3c4ccccc4nc4c(C(=O)N5CCN(CCO)CC5)cccc34)cc2)n1`
## Result > 100 µM (inactive)

## Task // next record `O=C1C=CC(=O)c2c1cc([N+](=O)[O-])c1ccoc21`
## Result 2.18 µM (inactive)

## Task // next record CN1[C@@H]2C[C@@H](OC(=O)[C@H](CO)c3ccccc3)C[C@H]1[C@@H]1O[C@@H]12 [SCOPOLAMINE HYDROBROMIDE]
## Result > 100 µM (inactive)

## Task // next record CCN(CC)c1ccc(C2N3CCCCC3[C@@H]3c4[nH]c5ccccc5c4CCN23)cc1 (some centres undefined)
## Result 27.2 µM (inactive)

## Task // next record CC(C)(C)OC(=O)NC(Cc1ccc(OC(C)(C)C)cc1)C(=O)N[C@H]1CC[C@H](C(=O)O)C1 (some centres undefined)
## Result > 100 µM (inactive)

## Task // next record `CN1C2CC(=O)CC1[C@H](O)[C@@H]2O`
## Result > 100 µM (inactive)

## Task // next record `CC(C)(C)/C(O)=C\c1nc2cc(F)c(F)cc2[nH]c1=O`
## Result > 100 µM (inactive)

## Task // next record `COc1ccc(NCc2cccc3c(=O)c4ccc(Cl)cc4oc23)cc1`
## Result > 100 µM (inactive)

## Task // next record `O=C(c1cccc2ccccc12)C1(Br)S(=O)(=O)OCCOS1(=O)=O`
## Result > 100 µM (inactive)

## Task // next record `O=C1/C(=C2/C(=O)N(c3ccccc3)c3ccccc32)Nc2ccccc21`
## Result 27 µM (inactive)

## Task // next record `CCOP(=O)(OCC)/C(C#N)=C\c1ccc(OC(C)=O)cc1`
## Result > 100 µM (inactive)

## Task // next record CC(C)N(C(=O)C12C3C4C1C1C4(C#N)C3C12C(=O)O)C(C)C (centres undefined)
## Result > 100 µM (inactive)

## Task // next record `COc1ccc(C2(c3ccc(OC)cc3)OC(=O)c3cccc4cccc2c34)cc1`
## Result 5.94 µM (inactive)

## Task // next record `CCOC(=O)Nc1cc2c(c(N)n1)N=C(c1ccccc1)CN2`
## Result 10.7 µM (inactive)
